Origin of the recorded values: ChEMBL document CHEMBL1201862

# Tested on: SR
# testSummary: NCI tumour cell line growth inhibition, 48 h
The source made the active and inactive calls. No stated cut-off is given here; in the data, active = GI50 up to about 1.1 µM and inactive = higher. Residues, ends and D or L forms follow the SMILES beside them. *: point of attachment. Fmoc = O=C(OCC1c2ccccc2-c2ccccc21)*; Boc = CC(C)(C)OC(=O)*
Classes used: 1 for active, -1 for inactive

- CCCCCCCCCCCCCCCCCC(=O)OCC(COC1OC(COP(=O)(O)O)C(O)C(O)C1O)OC(=O)CCCCCCCCCCCCCCCCC (stereo unspecified): 1
- CN1CCN(C(=S)N(C(=O)c2ccco2)C2CCCCC2)CC1: -1
- CCN(CC(O)COc1ccc2c(c1)[n+]([O-])nc(N)[n+]2[O-])C(C)=O (stereo unspecified): -1
- CCOC(=O)/C=C/CCO[Si](C)(C)C(C)(C)C: -1
- NC1=NC(c2ccccc2)CC(c2cc(Cl)cc(Br)c2O)=N1 (stereo unspecified): -1
- CCC/C(Cl)=N/OC(=O)Nc1cc(C(F)(F)F)ccc1OC: -1
- NC(CCCNc1ccc(O)cc1)C(=O)O (stereo unspecified): -1
- CCc1n[nH]c(=O)n1N: -1
- Nc1ncnc2c1ncn2[C@@H]1C[C@H]1CO: -1
- Cc1cc(C#N)c(Nc2ccc(F)cc2[N+](=O)[O-])s1: -1
- O=C(/C=C1\Nc2ccccc2C(=O)N1c1ccccc1Cl)c1ccccc1: -1
- Cc1ccc(S(=O)OC2C3CC4CC(C3)CC2C4)cc1 (stereo unspecified): -1
- C=C(C)C(=O)O[C@H]1C/C(CO)=C/CCC(=C)C(OC(C)=O)[C@H]2OC(=O)C(=C)[C@H]12 (stereo partly specified): -1
- O=C(O)CSCc1cccc2ccccc12: -1
- COC1CC(O[C@H]2CC[C@@]3(C)[C@@H](CC[C@]4(O)[C@@H]3CC[C@]3(C)[C@@H](C(C)=O)[C@H](OC(=O)CC(C)C)[C@@H](OC(=O)c5ccccc5)[C@@]34O)C2)OC(C)C1OC1CC(OC)C(OC2OC(C)C(O)C(OC)C2O)C(C)O1 (stereo partly specified): -1
- CC1(C)SC2C(NC(=O)Cc3ccccc3)C(=O)N2C1C(=O)O (stereo unspecified): -1
- CC(C)(C)OC(=O)NCCCCC(NC(=O)C(Cc1c[nH]c2ccccc12)NC(=O)OCC1c2ccccc2-c2ccccc21)C(=O)N1CCCC1C(=O)NCC(N)=O (stereo unspecified) (Fmoc-WK(Boc)PG-NH2; configuration not given here): -1
- SC1=NNC2(C(Cl)=N1)c1ccccc1-c1ccccc12: -1
- C[n+]1c2n(c3nc(N)[nH]c(=O)c31)C1OC(C2)C(O)C1O (stereo unspecified): -1
- Cc1cc(O)c2c(c1)C(=O)C=C(Br)C2=O: -1
- COc1cccc(C2ON=C(c3ccccc3)N2C23CC4CC(CC(C4)C2)C3)c1 (stereo unspecified): -1
- C[C@]12CC[C@H]3[C@@H](CCC4=CC(=O)CC[C@@H]43)[C@@H]1CC[C@]2(O)C(N)=O: -1
- CN/N=C(\C(=O)Nc1ccc([N+](=O)[O-])cc1[N+](=O)[O-])C1NC(=O)NC1=O (stereo unspecified): -1
- CCc1nnc(CC)n1N1C(=O)CCC1=O: -1
- Cc1cc(SCC(=O)c2ccccc2)nc2ccccc12: -1
- O=C(/C=C/c1ccc(OCCCOc2ccc(/C=C/C(=O)c3ccc(Cl)cc3)cc2)cc1)c1ccc(Cl)cc1: -1

###

# Test system: HCT-116
# testSummary: NCI tumour cell line growth inhibition, 48 h
Counter-ions that a name gives are not always drawn. Activity calls are given as the source filed them. Cut-off read from the data, not from the text of the source: active = GI50 up to about 1.1 µM and inactive = higher.
Classes used: yes for active, no for inactive

- O=C(CCC(=O)Nc1ccc(Cl)c(Cl)c1)CC(=O)c1ccc2ccccc2c1: no
- CC(NNC(=O)c1ccncc1)c1ccc(Cl)c(Cl)c1 (centres undefined): no
- Cc1ccc([N+](=O)[O-])cc1NC(=O)C(=O)Cc1nc2ccc(C(=O)c3ccccc3)cc2nc1O: no
- COc1ccc(N2C(=O)CC(=O)N(C(=O)COc3ccc(OCC(=O)N4C(=O)CC(=O)N(c5ccc(OC)cc5)C4=S)cc3)C2=S)cc1: no
- CCOC1c2cc(OC)c(OC)cc2-c2ccc3ccccc3c2N1C (centres undefined): no
- C/C(=N\Nc1ccc2ccccc2n1)c1ccccc1O: no
- CC[C@@]1(O)C(=O)OCc2c1cc1n(c2=O)Cc2cc3c(CN(C)C)c(O)ccc3nc2-1 [TOPOTECAN HYDROCHLORIDE]: yes
- c1ccc(/N=C(/Nc2ccccc2)N2CCCCC2)cc1: no
- CCOC(=O)c1c2cccccc-2nc1Nc1cccc2c(C)ccnc12: no

###

# System: HCC 2998
# testSummary: NCI tumour cell line growth inhibition, 48 h
Activity calls are given as the source filed them. Cut-off read from the data, not from the text of the source: active = GI50 up to about 1.1 µM and inactive = higher. Non-standard residues stand in square brackets, D forms with d. Residues, ends and D or L forms follow the SMILES beside them. *: point of attachment. NMeF = CN[CH](Cc1ccccc1)C(=O)O; NMeV = CN[CH](C(=O)O)C(C)C; Boc = CC(C)(C)OC(=O)*; OBn = c1ccc(CO*)cc1
Classes used: active, inactive

• Cc1ccc(C)c(NC(=O)/C(=N\NC(N)=S)C(C#N)c2ccccc2)c1 (stereo unspecified) = inactive
• CCOC(=O)c1nc2ccccc2nc1Nc1ccc(F)cc1 = inactive
• CCN(CCN(CC)C(=O)Nc1ccccc1)C(=O)Nc1ccccc1 = inactive
• C=C1CC(C)(COc2ccc3c(C)c(Cl)c(=O)oc3c2)OC1=O (stereo unspecified) = inactive
• COc1cc(/C=C2/C[C@H]3[C@@H]4CCC5=CC(=O)CC[C@]5(C)[C@H]4CC[C@]3(C)NC2=O)cc(OC)c1OC = inactive
• CCOP(=O)(OCC)C(C(=O)OC)C(=O)C(=O)Nc1cccc([N+](=O)[O-])c1 (stereo unspecified) = inactive
• CCOC(=O)/C=C/CCO[Si](C)(C)C(C)(C)C = inactive
• CC(=O)/C(=C/c1ccccc1F)C(=O)c1ccccc1 = inactive
• COC(=O)/C=C(C)/C=C/c1c(C)c(C(C)=O)c(C)n1C = inactive
• COc1cc(OC)c2c(O)cc(CC(C)O)cc2c1 (stereo unspecified) = inactive
• C=C1C(=O)OC2CC3(C)C=CC(=O)C(=C)C3CC12 (stereo unspecified) = inactive
• [N-]=[N+]=Nc1ccc2c(c1)Sc1ccccc1N2CCCCN1CCN(Cc2ccc(C(=O)c3ccc(CSCC(N)C(=O)O)cc3)cc2)CC1 (stereo unspecified) = inactive
• CC12CCCCC1=[N+]([O-])C(C)(C)N2O (stereo unspecified) = inactive
• C=C1C=CC2(Br)OC3CC(C)(Cl)C(Br)CC13C2(C)C (stereo unspecified) = inactive
• CCCCN(CCCC)C(=O)C(=O)C(C(=O)c1ccc(OC)cc1)c1ccc(OC)cc1 (stereo unspecified) = inactive
• COc1ccc2[nH]c3c([N+](=O)[O-])ccc(NCCN(C)C)c3/c(=N/CCN(C)C)c2c1 = active
• C=CCN1C(=O)NC(=O)/C(=C/c2c3ccccc3cc3ccccc23)C1=O = inactive
• C/C(Cc1ccc2c(c1)OCO2)=N\N=c1\sc2ccccc2n1C = inactive
• Cc1cn(C2CC(n3cc(Cn4cc(I)c(=O)[nH]c4=O)nn3)C(CO)O2)c(=O)[nH]c1=O (stereo unspecified) = inactive
• O=C1CC2[C@@H](N3CCCC3)CCC(N1Cc1ccccc1)C2(O)O (stereo partly specified) = inactive
• CN1CCN(C(=S)N(C(=O)c2ccco2)C2CCCCC2)CC1 = inactive
• [N-]=[N+]=N/C1=C/CCCCC(=O)C1 = inactive
• CC1(C)OCN(c2ccc(S(N)(=O)=O)cc2)Cn2c1nc1ccccc12 = inactive
• CC(C)C(NC(=O)OC(C)(C)C)C(=O)N(C)C(Cc1ccccc1)C(=O)N(C)C(C(=O)OCc1ccccc1)C(C)C (stereo not drawn) (Boc-Val-[NMeF]-[NMeV]-OBn; configuration not given here) = inactive
• c1ccc(-c2c3c(nc4c2CC[C@H]4NC2=NCCN2)[C@@H](NC2=NCCN2)CC3)cc1 = inactive
• Cn1c2ccccc2c2cc(-c3ccccc3)c3c(c21)C(=O)c1ccccc1C3=O = inactive

###

# System: T47D
# testSummary: NCI tumour cell line growth inhibition, 48 h
Active and inactive are the calls of the source. Rule as the data show it: active = GI50 up to about 1.1 µM and inactive = higher. Residues, ends and D or L forms follow the SMILES beside them. *: point of attachment. Fmoc = O=C(OCC1c2ccccc2-c2ccccc21)*; Boc = CC(C)(C)OC(=O)*
Classes used: active, inactive

- CCOC1Oc2ccccc2-c2nc(SC)ncc21 (stereo unspecified): inactive
- c1ccc(/N=C(/Nc2ccccc2)N2CCCCC2)cc1: inactive
- Cc1ccc(Nc2cc(=O)[nH]c(=O)[nH]2)cc1CS: inactive
- SC1=NNC2(C(Cl)=N1)c1ccccc1-c1ccccc12: inactive
- O=c1c2cn[nH]c2nc2scc(-c3ccc(Cl)cc3)n12: inactive
- CCN(CCCl)c1cc(CN(C)C)cc(NC(=O)c2ccc(C(=O)Nc3cccc(CN(C)C)c3)cc2)c1: inactive
- CC1OC(OC2C(OC(=O)[C@]34CCC(C)(C)C[C@H]3C3=CC[C@@H]5[C@@]6(C)CC[C@H](OC7OC(CO)C(O)C(O)C7OC7OC(CO)C(O)C(O)C7O)C(C)(C)[C@@H]6CC[C@@]5(C)[C@]3(C)CC4)OCC(O)C2O)C(O)C(OC2OCC(O)C(O)C2O)C1OC1OCC(O)C(OC2OCC(O)C(O)C2O)C1O (stereo partly specified): inactive
- CC1OC(O[C@H]2C3C=CO[C@@H](OC4OC(CO)C(O)C(O)C4O)C3[C@@]3(COC(=O)/C=C/c4ccc(O)cc4)O[C@@H]23)C(O)C(O)C1O (stereo partly specified): inactive
- CCC12CC(c3ccccc3)C(C(=O)N1)C(=O)N2 (stereo unspecified): inactive
- Cc1cc2ncn(C3CCCO3)c2cc1C (stereo unspecified): inactive
- C(=N/NC1=NCCN1)/c1c2ccccc2c(/C=N\NC2=NCCN2)c2ccccc12: active
- C=CCOC(=O)c1c(C)[n+]([O-])c2cc(Cl)c(Cl)cc2[n+]1[O-]: inactive
- C[C@@]12C(=O)OC(=O)[C@]1(C)[C@H]1CC[C@@H]2O1: inactive
- O=C1c2ccccc2-c2nnc3c(c21)Cc1ccccc1C3: inactive
- [N-]=[N+]=NI1OC(C(F)(F)F)(C(F)(F)F)c2ccccc21: inactive
- COc1ccc(C2(C3c4cc(OC)c(OC)cc4CCN3C)SCCCS2)cc1O (stereo unspecified): inactive
- CCc1n[nH]c(=O)n1N: inactive
- O=C(O)CCc1nc2c(n1Cc1ccccc1)C(=O)c1ccccc1C2=O: inactive
- CCCCCCCCCc1cc(O)c(O)cc1CCCCCCCCC: inactive
- C=CC/C=C/Cc1csc(C(C)(C)C(O)C/C=C/C(=C)CCNC(=O)OC)n1 (stereo unspecified): inactive
- O=C(O)CSCc1cccc2ccccc12: inactive
- O=[N+]([O-])c1ccc(Cl)cc1N/N=C/c1cccs1: inactive
- C=C1CC[C@@H]2[C@](C)(COC(=O)CCC(=O)O)CCC[C@@]2(C)[C@@H]1CCC1=CC(=O)OC1: inactive
- CC(C)(C)OC(=O)NCCCCC(NC(=O)C(Cc1c[nH]c2ccccc12)NC(=O)OCC1c2ccccc2-c2ccccc21)C(=O)N1CCCC1C(=O)NCC(N)=O (stereo unspecified) (Fmoc-WK(Boc)PG-NH2; configuration not given here): inactive
- Cc1csc2nc(-c3cccc([N+](=O)[O-])c3)c(/C=N/N=C(N)N)n12: inactive
- CC1OC(OC2C[C@](O)(C(=O)CF)Cc3c(O)c4c(c(O)c32)C(=O)c2ccccc2C4=O)CC(N)C1O (stereo partly specified): active
- Cc1cccc(C)c1NC(=O)/C(Cl)=C(/Cl)C(=O)O: inactive
- CCOC(=O)c1c2cccccc-2nc1Nc1cccc2c(C)ccnc12: inactive
- CN1C(=O)C(=CNc2ccccc2Cl)C(=O)N(C)C1=O: inactive
- COc1ccc(/C=C/C2=NN(c3cccc(S(=O)(=O)O)c3)C3(C2)SCC(=O)N3c2nc3ccccc3s2)cc1 (stereo unspecified): inactive
- FC1=C2C3CCC(C3)C2C1(F)F (stereo unspecified): inactive
